System: T1, Human Galectin-3 protein (Acro Biosystems, GA3-H5129) (human, UniProt P17931 2-250)
T1 construct: Bought protein; also called hGal3; Gal3; not shown: linker-spaced 6-histidine tag
T1 sequence (P17931 2-250): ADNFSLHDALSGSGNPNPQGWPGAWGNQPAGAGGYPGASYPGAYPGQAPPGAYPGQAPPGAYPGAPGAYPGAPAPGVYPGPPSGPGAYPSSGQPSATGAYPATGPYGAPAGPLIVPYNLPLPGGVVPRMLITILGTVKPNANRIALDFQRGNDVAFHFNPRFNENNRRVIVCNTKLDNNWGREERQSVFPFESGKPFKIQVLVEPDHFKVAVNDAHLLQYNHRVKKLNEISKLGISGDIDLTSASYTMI
Assay comment: SPR Biacore T200, antibody captured, Galectin-3 analyte
Parameter: pKd. Scope: all listed entries.
Note on pKd: it is the negative log10 of concentration, concentration in mol/L.

See these solved cases before continuing.
20D11.2C6 (antibody, V domains shown, murine antibody) VH: EVQLQQSGPELVKPGASVKISCKASGYTFTDFYINWVKQSHGKSLEWIGDINPKNGGINYNPKFKIKATLTVDKSSSTSYMDLRGLTSEDSAVYYCTSGYGFPYWGQGTLVTVSA VL: DIQMNQSPSSLSASLGDTITITCRASQNIYIWLSWYQQKPGNIPKLLIYKASNLHTGVPSRFSGSGSGTDFTLTISTLQPEDIATYFCLQGQSYPLTFGAGTKLEMK | 7.56
4A11.2B5 (antibody, V domains shown, murine antibody; parent of IMT006-1 and IMT006-5) VH: QVQLQQSGPELVKPGASVKISCKASGYSFTNYYIHWVKQRPGQGLEWIGWIYPGSGNTNYNEKFKGKATLTADTSSSTTNMQLSSLTSEDSAVYYCSTAPGGFDVWGSGTTVTVSS VL: DIVMTQAAFSNPVTLGTSASISCRSSKSLLHSDGITYLYWYLQRPGQSPQLLIYRMSNLASGVPDRFSGSGSGTDFTLRISRVEAEDVGVYYCAQMLEFPLTFGAGTKLELK | 8.28

# ---- query binder ----
Ask: Endpoint output: pKd of 15G7.2A7 (antibody, V domains shown, murine antibody) VH: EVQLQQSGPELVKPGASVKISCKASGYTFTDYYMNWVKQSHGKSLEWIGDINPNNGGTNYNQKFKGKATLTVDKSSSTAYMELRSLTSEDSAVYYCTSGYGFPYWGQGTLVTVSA VL: DIQMNQSPSSLSASLGDTISITCRASQNINIWLSWYQQKPGNIPQLLIYKASNLHTGVPSRFSGSGSGTDFTLTISSLQPEDIATYYCLQGQSYPLTFGAGTKLVMK . Value?
Reply: 7.95
